TEST_READOUT: melting point

> print(dat)
                            chemical.smiles   test.readout         result
1          COc1cc(O)c(C(C)=O)cc1NC(=O)N(C)C  melting point  176 to 177 °C
2       COc1cc(O)c(C(C)=O)cc1NC(=O)N1CCOCC1  melting point  220 to 221 °C
3     COc1cc(O)c(C(C)=O)cc1NC(=O)NCc1ccccc1  melting point  194 to 195 °C
4  COc1cc(O)c(C(C)=O)cc1NC(=O)Nc1ccc(OC(F)(F)F)cc1  melting point  209 to 210 °C
5   CCN1CCN(C(=O)Nc2cc(C(C)=O)c(O)cc2OC)CC1  melting point  125 to 126 °C
